experimentSummary: Toxicity liver stage against HepG2, at 10uM
Assay type: cell-based
Parameters: test concentration 10 uM, cell line HepG2-A16-CD81EGFP
condition: human, HepG2-A16-CD81EGFP cells; read-out: INHIBITION
For each of the compounds below, state its cytotoxicity at 10 µM.
Give bare numbers, in %.

The following compounds have reported results that may help.
compound="CN(Cc1nnc(C2CC2)n1C)C1CCN(Cc2ccc(F)cc2)C1 (centres undefined)" endpointresult=-7.17
compound=COC(=O)c1cccc2nc([C@H]3CCN(C4CCN(C)CC4)C3)oc12 endpointresult=-3.54

# per-item lookup of cytotoxicity at 10 µM; items listed below
1. Cc1csc(CN2C[C@@H]3CN(C)CCO[C@@H]3C2)n1
2. CC(C)c1nc(C2CCCN2C(=O)c2ccc3nncn3c2)no1 (centres undefined)
3. COc1c(CNCc2ccc(OCC(N)=O)cc2)c(C)nn1C

-105
-10.3
-3.81

Quick batch: cytotoxicity at 10 µM for everything below.
1. O=C([C@H]1C[C@H]2OCC[C@H]2N(C(=O)c2ccncc2)C1)N1CCCCO1
2. O=c1c2sccc2nc2n1CCN(Cc1cc(F)ccc1F)CC2
3. c1ccc(-c2cc(CN3C[C@H]4CC[C@H]3C4)on2)cc1
4. COc1ccccc1Oc1ncccc1CNC(=O)CN1CCCC1=O

[-6.77, -21.8, -5.33, -4.72]

Provide each entry's cytotoxicity at 10 µM from the list below.
1. CC(=O)N1CCC2(CC1)c1ncc(-c3ccccc3)n1CCN2C
2. COCc1cccc(CNCc2c(C)nn(C)c2N(C)C)c1
3. COc1ccc(NC(=O)N2CCN(CCSc3ccccc3)CC2)cc1
4. Cc1noc(C)c1CN1CC[C@H]2C[C@@H](c3nccs3)O[C@@H]2C1
5. Cc1ccc(NC2CCN(C(=O)Cn3nc(C)cc3C)CC2)nn1
6. CCCc1nnc(N2CCN(c3cccc(OC)c3)C(=O)C2)o1

[-104, 1.08, 6.13, -5.33, -1.81, 9.52]

Would you mind listing cytotoxicity at 10 µM for each of the following compounds?
1. Cc1nn(CCO)c(C)c1CNC1CCOc2ccccc21 (centres undefined)
2. CCc1ccc(CN2CCOC(Cc3cccc(F)c3)C2)nc1 (centres undefined)
3. CCN(CC)CC(=O)N1CCN(CCCc2ccncc2)CC1
4. CCOCc1nc(N2CCOCC2)sc1C(=O)NCCCc1ccco1
5. O=C(c1ccsc1)N1C[C@@H]2CCN(C(=O)c3cccc(F)c3)[C@@H]2C1

14.4
-2.33
-60.5
-87.3
1.47

---

experimentSummary: Toxicity liver stage against HepG2, at 10uM
Format: cell-based
Parameters: test concentration 10 uM, cell line HepG2-A16-CD81EGFP
condition: human, HepG2-A16-CD81EGFP cells; read-out: INHIBITION
reportedProperty: cytotoxicity at 10 µM (%)
One number for each entry, in %.

Example compounds with recorded cytotoxicity at 10 µM:
compound="O=C(C1CC(=O)N(c2n[nH]c3cc(Br)ccc23)C1)N1CCOCC1 (stereo unspecified)" endpointresult=-3.27
compound=O=C1NCCN1C1CCN(CCOc2ccccc2Cl)CC1 endpointresult=-6.69
compound=Cc1c(CN2CC[C@@H](N3CCC(O)CC3)[C@H](O)C2)[nH]c2ccc(Cl)cc12 endpointresult=-3.96

Required: cytotoxicity at 10 µM, one value per compound below.
1. CCCc1cc(N2CCC(NC3CCS(=O)(=O)C3)CC2)nc(C)n1 (stereo unspecified)
2. Cc1nc(C)c(C(=O)N2CCc3cc(F)ccc3C2C)o1 (stereo unspecified)
3. Cc1ccc2c(c1)SCC(=O)N2CC(=O)N1CCCC1c1cc(C)on1 (stereo unspecified)
4. O=C(CN(CC1CCC1)CC(F)(F)F)N1CCCC1
5. CN(C)C(=O)C1CCN(C2CCN(CC3CC3)CC2)CC1
6. Cn1ncc2c1NC(=O)CSC2c1ccccc1Cl (stereo unspecified)

-6.65
10.5
1.28
1.84
4.55
5.81

Hey, can you go through the list below and give me cytotoxicity at 10 µM for every item?
1. CCCc1nnc2sc(C3CCN(C4CCN(C)CC4)CC3)nn12
2. Cc1ccc(S(=O)(=O)NCc2[nH]ncc2Br)cc1C
3. Cc1nnc(N2CCOC(Cn3cccn3)C2)c(C#N)c1C (stereo unspecified)
4. O=C(O)Cn1ccc2c(Cl)cccc21

-10.6
5.23
-8.47
0.308

Please report cytotoxicity at 10 µM for every entry that follows.
1. Cc1ccc(C(C(=O)NCc2cc(C)[nH]n2)N(C)C)cc1 (stereo unspecified)
2. CCN(CC)S(=O)(=O)N1CCc2nc(C3CCNCC3)ncc2C1
3. CCn1ncc(CNc2[nH]cnc3nncc2-3)c1C

[-0.671, -5.66, 2.76]

Okay, here is my list. What is cytotoxicity at 10 µM for each of these?
1. CCN(C)CC1CCN(C(=O)NCCC2Cc3ccccc3C2)C1 (stereo unspecified)
2. Cc1cc2c(c(-c3cncc(C(=O)N4CCCC4)n3)c1)OC(CN)C2 (stereo unspecified)
3. CC1CCN(CC(=O)N(Cc2ccccc2)Cc2nccs2)C1=O (stereo unspecified)
4. COc1ccc(-n2c(CO)nc3ccccc32)cc1CO
5. Cc1ccc(CC(=O)N2CC[C@@H]3NC(=O)CC[C@@H]32)cc1
6. Cc1cc(C)n(CC2CCCN2C(=O)c2ccc3nnc(C)n3c2)n1 (stereo unspecified)
7. CSc1ccc(CNc2n[nH]c(C)n2)cc1
8. COCCN1C[C@@H]2CN(Cc3cccc(F)c3)CCC[C@]2(C(=O)O)C1

1: 0.458; 2: -45.7; 3: -0.0342; 4: 1.78; 5: 1.49; 6: -3.6; 7: -3.58; 8: 0.928

# per-item lookup of cytotoxicity at 10 µM; items listed below
1. Cc1ccccc1CNC(=O)Cn1ncc2c1c(C)nn2C
2. O=C1CCC(CCC(=O)N2CCC2c2cccs2)=NN1 (stereo unspecified)
3. CC(C)NC(=O)COc1cccc(-c2nc(C(C)C)no2)c1
4. Cc1cc2c(N)nc(=O)n(CC(=O)Nc3cccc(Cl)c3)c2s1
5. CCN1CC2(CNCCN(C(=O)Nc3ccccc3)C2)CC1=O (stereo unspecified)
6. Cc1ccc(NC2(C(=O)NC(C)c3ncn[nH]3)CCCC2)cc1 (stereo unspecified)
7. COC(=O)c1cccc(C(=O)NCc2ccc(C)o2)n1
8. O=C(NC[C@@H]1CCCO1)c1cccnc1N1CCCC1c1ccccc1 (stereo partly specified)

1. 9.71
2. 6.13
3. -5.77
4. -3.14
5. 0.346
6. 0.317
7. 11.5
8. 3.95

Each compound below has a reported value. Please supply its cytotoxicity at 10 µM.
1. Cn1c(C2CC2)nc2c1CCN(CC(=O)Nc1nncs1)C2
2. COc1cc(OCC(=O)NCCc2ccccc2)cc(OC)c1OC
3. CCN(CCC#N)Cn1ncc2cn(-c3ccccc3)nc2c1=O
4. Cc1c2ncn(CC(=O)NC(C)C)c(=O)c2nn1C
5. CCC(C)CS(=O)(=O)NC(=O)C1CCC1 (stereo unspecified)

1: -6.44; 2: 0.285; 3: -14.5; 4: -5.26; 5: -7.88

Look up cytotoxicity at 10 µM for the entries below, preserving their order.
1. Cc1cc(C(O)CCNS(=O)(=O)c2ccc(Cl)s2)c(C)o1 (stereo unspecified)
2. Cc1cc(C)n(CCCNC(=O)C(C)NC(=O)c2ccccc2Cl)n1 (stereo unspecified)
3. CC(C)[C@H]1CN(Cc2c[nH]nn2)C[C@@H]1NC(=O)C1CCOCC1
4. Cc1ccc(NCCNC(=O)c2cc(CC(C)C)n[nH]2)nn1

1. -3.95
2. -0.136
3. 22.3
4. 0.37

---

Record form. Attribute: cytotoxicity at 10 µM. Fill in for each entry.
experimentSummary: Toxicity liver stage against HepG2, at 10uM
Type: cell-based
Parameters: test concentration 10 uM, cell line HepG2-A16-CD81EGFP
condition: human, HepG2-A16-CD81EGFP cells; read-out: INHIBITION
Numbers only, in %.

# annotated cases, reported cytotoxicity at 10 µM shown
compound="CN(C)C(=O)CCC1CCCN(Cc2cccc(-c3ccccn3)c2)C1 (centres undefined)" endpointresult=3.45
compound=CC1(C)COCCN1C(=O)CCc1nc(-c2ccc(Cl)cc2)no1 endpointresult=25.4
compound="CCn1ncc2c1C(COC)CN(c1ncc(F)cn1)C2 (centres undefined)" endpointresult=14.6
compound=CC(C)N1CCC(c2cc(C(F)(F)F)n3ccnc3n2)CC1 endpointresult=-16.2
compound="CCc1nc(CN(C(C)=O)C2CCN(Cc3cnc(C)cn3)C2)no1 (centres undefined)" endpointresult=-4.51

Please give cytotoxicity at 10 µM, item by item, for the list that follows.
1. COCCc1noc(-c2cn(CCc3ccccc3)nn2)n1
2. CCC1CN(C(=O)c2cncc(C)c2)CCC(=O)N1Cc1ccccc1 (centres undefined)
3. CC(=O)Nc1ccc(CNc2ccn(Cc3ccccc3)n2)cc1

-2.56
9.33
10.1

List cytotoxicity at 10 µM for every entry below, keeping the order given.
1. COC(=O)CS(=O)(=O)CCC(=O)N1CCCC1c1ccsc1 (centres undefined)
2. CCc1ccc(N2CCC(NS(=O)(=O)N(CC)CC)CC2)cc1
3. CCN(Cc1ccc(C(C)C)cc1)C(=O)c1csc(CN(C)C)n1
4. CN1CCC(N(C)C(=O)c2cnn(-c3cc(F)ccc3F)c2N)CC1
5. COc1ccc2[nH]c3c(c2c1)CN(c1cc(NCCO)nc(N)n1)CC3
6. Cc1cccc(-c2noc(CN3CC(n4cc(C)cn4)C3)n2)c1

-16.5
0.243
-3.84
-8.47
8.75
-8.8

Batch of 5 compounds: report cytotoxicity at 10 µM for each.
1. COc1cccc(CN2CCC(CO)(Cc3ccc(Cl)cc3)CC2)c1O
2. CCc1ccc(C(=O)Nc2cc(N3CCNC3=O)ccc2Cl)o1
3. CCN(CC)C(=O)[C@@H]1C[C@@H](NC(=O)c2ccn(C(C)(C)C)c2)CN1C
4. Cc1nncn1CCNC(=O)C1SCCc2sccc21 (centres undefined)
5. Cc1nc2sccn2c1C(=O)N1CCn2nc(C(=O)NC3CC3)cc2C1

1: -133; 2: 6.03; 3: -4.12; 4: 2.96; 5: 9.63
